Protocol: Effect of food on plasma pharmacokinetics after single oral dose of SF2a/b (Example 2)
Assay type: in vivo, human
Assay setup: both sexes, human, plasma, oral, 200 mg, Treatment G: single 200 mg (SF2b), fed, standardized breakfast; read-out: AUC∞, Geo. Mean
Endpoint label: AUC(0-inf)
Param answer (str): number followed by unit.

Can you look up the measured AUC(0-inf) of COc1cc(NC(C(=O)c2c[nH]c3ccc(OC(F)(F)F)cc23)c2ccc(Cl)cc2OC)cc(S(C)(=O)=O)c1 (stereo not shown) for me? 102 µg·h/mL

---

Protocol: Effect of food on plasma pharmacokinetics after single oral dose of SF2a/b (Example 2)
Type: in vivo, human
Assay setup: both sexes, human, plasma, oral, 50 mg, Treatment H: single 50 mg (SF2a), fasted; read-out: Cmax, Median
Endpoint label: Cmax (ng/mL)
Kindly provide the numeric value in ng/mL only, without the unit symbol.

Can you look up the measured Cmax of COc1cc(NC(C(=O)c2c[nH]c3ccc(OC(F)(F)F)cc23)c2ccc(Cl)cc2OC)cc(S(C)(=O)=O)c1 (stereo not shown) for me? 208

---

Protocol: Plasma pharmacokinetics with loading dose and weekly or twice weekly maintenance dosing, fed (Example 5)
Assay type: in vivo, human
Assay setup: human, plasma, oral, Panel III (150 mg BID Days 1-2, then 300 mg Q7D; SF2a/b, fed), Day 24; read-out: Mean Cmax (SD)
Description: A pharmaceutical formulation comprising Compound (a) as described in Example 2 (SF2a/b) was administered as an oral dosage form, to healthy adult participants, in a fed state. […]
Endpoint label: Cmax (ng/mL)
Kindly provide the numeric value in ng/mL only, without the unit symbol.

Can you look up the measured Cmax of COc1cc(NC(C(=O)c2c[nH]c3ccc(OC(F)(F)F)cc23)c2ccc(Cl)cc2OC)cc(S(C)(=O)=O)c1 (stereo not shown) for me? 2130

---

Protocol: Plasma pharmacokinetics with loading dose and weekly or twice weekly maintenance dosing, fed (Example 5)
Format: in vivo, human
Assay setup: human, plasma, oral, Panel I (450 mg BID Days 1-2, then 900 mg Q7D; SF2a/b, fed), Day 24; read-out: Median tmax (min-max)
Endpoint label: Tmax (h)
Kindly provide the numeric value in h only, without the unit symbol.

Can you look up the measured Tmax of COc1cc(NC(C(=O)c2c[nH]c3ccc(OC(F)(F)F)cc23)c2ccc(Cl)cc2OC)cc(S(C)(=O)=O)c1 (stereo not shown) for me? 6

---

Protocol: Effect of food on plasma pharmacokinetics after single oral dose of SF2a/b (Example 2)
Type: in vivo, human
Assay setup: both sexes, human, plasma, oral, 200 mg, Treatment F: single 200 mg (SF2b), fasted; read-out: AUClast, Geo. Mean
Procedure: The effect of food on the pharmacokinetics (PK) of Compound (a) was assessed in healthy participants after a single oral dose of SF2a/b, described in Example 1, administered at different dose levels in a randomized single dose, 2-period crossover study. […]
Endpoint label: AUC(0-t) (ng·h/mL)
Kindly provide the numeric value in ng·h/mL only, without the unit symbol.

Can you look up the measured AUC(0-t) of COc1cc(NC(C(=O)c2c[nH]c3ccc(OC(F)(F)F)cc23)c2ccc(Cl)cc2OC)cc(S(C)(=O)=O)c1 (stereo not shown) for me? 61100

---

Protocol: Effect of food on plasma pharmacokinetics after single oral dose of SF2a/b (Example 2)
Assay type: in vivo, human
Assay setup: both sexes, human, plasma, oral, 200 mg, 200 mg SF2b, fed, low-fat, low-calorie breakfast; read-out: Cmax, Geometric LS Means Treatment N
Endpoint label: Cmax (ng/mL)
Kindly provide the numeric value in ng/mL only, without the unit symbol.

Can you look up the measured Cmax of COc1cc(NC(C(=O)c2c[nH]c3ccc(OC(F)(F)F)cc23)c2ccc(Cl)cc2OC)cc(S(C)(=O)=O)c1 (stereo not shown) [Compound (a)] for me? 697
